target: T1, biotinylated human IL-17A (Homo sapiens, UniProt Q16552, biotin (site not stated))
T1 construct: human interleukin-17A; also called hIL-17A; biotinylated IL-17A
T1 sequence (Q16552 24-155): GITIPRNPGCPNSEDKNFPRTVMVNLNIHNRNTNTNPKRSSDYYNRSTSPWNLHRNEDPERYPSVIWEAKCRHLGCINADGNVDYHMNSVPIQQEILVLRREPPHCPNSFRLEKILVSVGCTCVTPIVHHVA
assay-details: flow cytometry on cells; scFv displayed on yeast EBY-100; incubated with soluble antigen (biotinylated human IL-17A in PBS 0.1% BSA, 1 h), labelled with anti-Myc-FITC (expression) and streptavidin-APC (binding)
measurement-context: one partner purified
measurement-name: binding result

- binder: "clone 11.4_C13 scFv displayed on yeast (scFv, V domains shown, as the VH of m1 (AAL160) with changes; has no T100P; three repeats of the G4S linker between VH and VL; as the VL of m1 (AAL160) with changes; source: yeast surface display, EBY-100, induced with galactose) VH: EVQLVQSGAEVKKPGESLKISCKGSGYSFTSYWIGWVRQMPGKGLEWMGIIYPSDSDTRYSPSFQGQVTISADKSISTAYLQWSSLKASDTAMYYCARYTNYEAFDIWGQGTMVTVSS VL: EIVLTQSPATLSLSPGERATLSCRASQSVWSYLAWYQQKPGQAPRLLIYDASNRATGIPARFSGSGSGTDFTLTISSLEPEDFAVYYCQQSFYWPFPFGQGTKLEIK"
  measurement-name: "binding result"
  readout-value: "binds"
- binder: "clone 11.1_C5 scFv displayed on yeast (scFv, V domains shown, as the VH of m1 (AAL160) with changes; three repeats of the G4S linker between VH and VL; as the VL of m1 (AAL160) with changes; First-generation clone from library A_11.1; source: yeast surface display, EBY-100, induced with galactose) VH: EVQLVQSGAEVKKPGESLKISCKGSGYSFTSYWIGWVRQMPGKGLEWMGIIYPSDSDTRYSPSFQGQVTISADKSISTAYLQWSSLKASDTAMYYCARYTNYGNFDIWGQGTMVTVSS VL: EIVLTQSPATLSLSPGERATLSCRASQSVWWYLAWYQQKPGQAPRLLIYDASNRATGIPARFSGSGSGTDFTLTISSLEPEDFAVYYCQQGFYWPWPFGQGTKLEIK"
  measurement-name: "binding result"
  readout-value: "binds"

The reported measurements were obtained from paper PMC10542344.
